What inhibition was measured for each of the following?
# measurement target: Serine/threonine-protein kinase MARK2 (Homo sapiens) (UniProt Q7KZI7);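 note: mean percent inhibition of PAR-1Balpha kinase activity, reported from the GSK PKIS screen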
# Sequence (Q7KZI7 whole entry): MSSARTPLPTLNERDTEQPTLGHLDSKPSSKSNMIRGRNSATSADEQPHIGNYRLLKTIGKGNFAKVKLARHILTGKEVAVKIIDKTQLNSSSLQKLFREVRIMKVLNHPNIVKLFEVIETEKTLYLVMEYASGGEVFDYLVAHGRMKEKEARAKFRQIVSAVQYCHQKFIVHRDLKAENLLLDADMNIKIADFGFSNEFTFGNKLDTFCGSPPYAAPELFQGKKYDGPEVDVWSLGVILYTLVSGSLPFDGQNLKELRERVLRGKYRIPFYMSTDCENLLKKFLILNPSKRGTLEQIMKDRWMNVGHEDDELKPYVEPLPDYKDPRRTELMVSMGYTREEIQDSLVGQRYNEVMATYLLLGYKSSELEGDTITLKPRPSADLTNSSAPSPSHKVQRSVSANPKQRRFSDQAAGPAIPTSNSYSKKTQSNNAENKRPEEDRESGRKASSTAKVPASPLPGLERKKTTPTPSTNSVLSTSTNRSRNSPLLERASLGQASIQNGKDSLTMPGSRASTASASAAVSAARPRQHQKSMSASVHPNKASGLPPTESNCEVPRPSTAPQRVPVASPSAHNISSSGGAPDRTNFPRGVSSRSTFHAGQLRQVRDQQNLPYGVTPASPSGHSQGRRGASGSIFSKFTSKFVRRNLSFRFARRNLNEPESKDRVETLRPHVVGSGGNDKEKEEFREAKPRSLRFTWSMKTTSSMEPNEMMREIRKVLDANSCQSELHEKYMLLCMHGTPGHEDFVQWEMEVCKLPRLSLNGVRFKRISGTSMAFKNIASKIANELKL
# conditions: at 0.1 µM
Numbers only, in %.

CCc1ccc(Oc2nccc(-c3c(-c4ccc(F)cc4)ncn3C3CCNCC3)n2)cc1
1.93

Please state, for each entry, its recorded inhibition.
1. O=C(Nc1n[nH]c2cc(-c3ccccc3)ccc12)C1CC1
2. CN1CCN(CCCNc2nc3ccc(Oc4ccc(NC(=O)Nc5cc(C(F)(F)F)ccc5F)cc4)cc3[nH]2)CC1
3. Fc1ccc(-c2ncn(C3CCNCC3)c2-c2ccnc(Oc3ccc(F)c(F)c3)n2)cc1
4. N#Cc1ccc(Oc2nccc(-c3c(-c4ccc(F)cc4)ncn3C3CCNCC3)n2)cc1
5. NCc1ccc(-n2c(-c3nonc3N)nc3cnccc32)cc1
6. COc1cc2ncn(-c3cc(OCCc4ccccc4)c(C(N)=O)s3)c2cc1OC

1: 1.54; 2: -0.44; 3: -0.25; 4: -1.85; 5: 4.09; 6: 1

Please state, for each entry, its recorded inhibition.
1. COc1ccc2cc(-c3c(-c4ccncc4)nc(-c4ccc(S(C)(=O)=O)cc4C)n3C)ccc2c1
2. O=C1Nc2ccccc2/C1=C/Nc1ccc(-n2cncn2)cc1
3. FC(F)(F)c1cccc(Nc2nccc(-c3cnn4nc(-c5ccccc5)ccc34)n2)c1

0.73
1.47
-0.36

Please state, for each entry, its recorded inhibition.
1. c1ccc(-c2n[nH]cc2-c2ccnc(-c3ccc(OCCN4CCOCC4)cc3)c2)nc1
2. CN(C)c1ccc2c(c1)/C(=C/Nc1ccc(S(N)(=O)=O)cc1)C(=O)N2
3. COC(=O)Nc1nc2ccc(Sc3ccc(NC(=O)Nc4cc(C(F)(F)F)ccc4F)cc3)cc2[nH]1
4. CS(=O)(=O)CCNCc1cc(-c2cc3c(Nc4ccc(OCc5cccc(F)c5)c(Cl)c4)ncnc3s2)cs1

4.23
3.86
0.92
-0.51

Please state, for each entry, its recorded inhibition.
1. COc1cccc(-n2cnc3c(N/N=C/c4ccncc4)ncnc32)c1
2. Fc1ccc(-c2ncn(CCCN3CCOCC3)c2-c2ccncc2)cc1

1: 0.99; 2: -1.95

Please state, for each entry, its recorded inhibition.
1. COc1cc(Nc2ncc(-c3ccccc3)o2)cc(OC)c1OC
2. NS(=O)(=O)c1ccc(N/N=C2\C(=O)Nc3ccc(-c4cnco4)cc32)cc1

2.94
1.73
